Data origin: a melting point compilation (Tetko et al.)

metricName: melting point

State the recorded melting point for this entry: Cc1cc(C)nc(-n2cc(C(=O)O)c(C(C)C)n2)n1
171 to 173 °C

Could you do the same for CCOCCOc1ccc(Br)cc1C=O , please?
28 to 30 °C

Could you do the same for Cn1cc(C(=O)O)c(-c2ccc(N)cc2)n1 , please?
226 to 228 °C

Could you do the same for CCCCNc1ccc(N2CCOCC2)cc1 , please?
59 to 61 °C

Could you do the same for CC(C)c1ccc(-c2nc(CSc3nnc(N)[nH]3)cs2)cc1 , please?
156 to 158 °C

Could you do the same for CC(C)(C)C1=NN(c2ccccc2)C(=O)C1=CCl , please?
89 to 91 °C

Could you do the same for O=C(CCl)NCC(c1ccc(Cl)cc1Cl)c1c[nH]c2ccccc12 (centres undefined) , please?
73 to 75 °C

Could you do the same for Nc1nc2cc(Cl)cc(Cl)c2o1 , please?
247 to 249 °C

Could you do the same for CCOC(=O)c1ccc(NCC2CC2)cc1 , please?
69 to 71 °C

Could you do the same for Nc1ccc(F)c(NS(=O)(=O)c2ccccc2)c1 , please?
143 to 145 °C

Could you do the same for NS(=O)(=O)c1cccc2cnccc12 , please?
222 to 224 °C

Could you do the same for O=C(O)c1cc(S(=O)(=O)N2CCCCC2)ccc1N1CCOCC1 , please?
173 to 175 °C

Could you do the same for NC(CCCO)c1ccccc1 (centres undefined) , please?
72 to 74 °C

Could you do the same for Cc1cc(C(=O)O)c(C)n1C(C)c1ccccc1 (centres undefined) , please?
135 to 137 °C

Could you do the same for ClCc1coc(-c2ccc(Cl)cc2)n1 , please?
91 to 93 °C

Could you do the same for ClCc1noc(C2(c3ccccc3)CCOCC2)n1 , please?
74 to 76 °C

Could you do the same for COc1ccc(-c2noc(CCC(=O)O)n2)cc1 , please?
141 to 143 °C

Could you do the same for N#Cc1ccc(NC(=O)C(=O)O)cc1Cl , please?
203 to 205 °C

Could you do the same for CC(C)(Cc1ccccc1)C(=O)O , please?
49 to 51 °C

Could you do the same for Sc1nnc(-c2ccc[nH]2)o1 , please?
205 to 207 °C

Could you do the same for O=C(O)C1(c2ccc(Cl)c(Cl)c2)CCC1 , please?
116 to 118 °C

Could you do the same for CC(C)(C)OC(=O)NCc1nnc(S)o1 , please?
106 to 108 °C

Could you do the same for O=Cc1cnc(-c2cccs2)s1 , please?
113 to 115 °C

Could you do the same for O=C(Nc1ccc(C(=O)O)c(O)c1)c1cccc(Br)c1 , please?
239 to 241 °C

Could you do the same for FC(F)(F)C1(NCc2ccccc2)CCC2(CC1)OCCO2 , please?
83 to 85 °C

Could you do the same for O=C(O)c1cc2cccc(Br)c2o1 , please?
256 to 258 °C

Could you do the same for CCn1c(CCl)nc2cc(S(=O)(=O)N3CCCCC3)ccc21 , please?
234 to 236 °C

Could you do the same for Nc1cccc(S(=O)(=O)Nc2ccc(Cl)cc2)c1 , please?
127 to 129 °C

Could you do the same for O=C(c1cnc(Cl)c(Cl)c1)N1CCCCC1 , please?
78 to 80 °C

Could you do the same for Nc1cnc(Cc2ccc(F)cc2)nc1 , please?
123 to 125 °C

Could you do the same for O=C(O)Cn1ccc2ccc(Cl)cc21 , please?
166 to 168 °C

Could you do the same for CCOc1ccccc1Oc1ccccc1C(=O)O , please?
96 to 98 °C

Could you do the same for Nc1ncc(Br)cc1S(=O)(=O)N1CCCC1 , please?
169 to 171 °C

Could you do the same for COc1ccccc1NC(=O)COc1ccc(C(=O)O)cc1OC , please?
184 to 186 °C

Could you do the same for CC(=O)NCCNCc1ccccc1 , please?
51 to 53 °C

Could you do the same for NC(=O)CN1CCC(N)CC1 , please?
74 to 76 °C

Could you do the same for O=C(CCl)Nc1sc2c(c1C(=O)NCc1ccccc1)CCCC2 , please?
306 to 308 °C

Could you do the same for O=Cc1cn(-c2ccccc2)nc1-c1ccccc1 , please?
144 to 148 °C

Could you do the same for Nc1sccc1C(=O)NC1CC1 , please?
144 to 146 °C

Could you do the same for COc1ccc(S(=O)(=O)N2CCOCC2)cc1N , please?
189 to 191 °C

Could you do the same for NC(=O)c1ccc(Br)c(C(F)(F)F)c1 , please?
138 to 140 °C

Could you do the same for COC(=O)CC(NC(=S)NC12CC3CC(CC(C3)C1)C2)C(=O)OC (centres undefined) , please?
117 to 119 °C

Could you do the same for O=C(CCl)c1ccc(F)c(Cl)c1 , please?
37 to 39 °C

Could you do the same for COCc1c(C(=O)O)sc2ccccc12 , please?
159 to 161 °C

---

metricName: melting point

State the recorded melting point for this entry: O=C(O)c1cccc(S(=O)(=O)NCc2cccnc2)c1
231 to 233 °C

Could you do the same for Cc1oncc1C(=O)Nc1cccc(C(=O)O)c1 , please?
245 to 247 °C

Could you do the same for COC(=O)Nc1ccccc1C(=O)O , please?
177 to 179 °C

Could you do the same for NCc1ccc(N2CCS(=O)(=O)CC2)cc1 , please?
97 to 99 °C

Could you do the same for CS(=O)(=O)c1ccccc1-n1cc(C(=O)O)cn1 , please?
225 to 227 °C

Could you do the same for CC(C)NS(=O)(=O)c1ccccc1CN , please?
79 to 81 °C

Could you do the same for Cc1cccc(C)c1NC(=O)CCCCl , please?
104 to 106 °C

Could you do the same for O=C(CCl)/N=c1\sccn1Cc1ccccc1Cl , please?
82 to 84 °C

Could you do the same for CS(=O)(=O)c1nc(C(=O)O)c2ccccn12 , please?
259 to 261 °C

Could you do the same for CCOC(=O)c1cc(C#N)c(SCC(=O)O)[nH]c1=O , please?
195 to 197 °C

Could you do the same for O=C(NC1CCNCC1)C1CCOCC1 , please?
156 to 158 °C

Could you do the same for O=C(O)c1ccc(Oc2ccc(F)cc2[N+](=O)[O-])cc1 , please?
179 to 181 °C

Could you do the same for CC(N)C(=O)NO (stereo not given) , please?
159 to 161 °C

Could you do the same for CCn1cc(Br)cc1C(=O)O , please?
148 to 150 °C

Could you do the same for CC(C)(C)c1ccc(Cl)nn1 , please?
83 to 85 °C

Could you do the same for Nc1cc(S(=O)(=O)N2CCOCC2)ccc1Cl , please?
177 to 179 °C

Could you do the same for CC(N)(C(=O)O)c1ccccc1 (stereo not given) , please?
169 to 171 °C

Could you do the same for Cc1ccc(S(=O)(=O)Cl)c(F)c1 , please?
39 to 41 °C

Could you do the same for Cc1ccc(Oc2ccc(N)cn2)cc1 , please?
90 to 92 °C

Could you do the same for CN(C)C(=O)Sc1ccc2c(c1)CCCC2=O , please?
99 to 101 °C

---

Record form. Attribute: melting point. Fill in for each entry.

State the recorded melting point for this entry: O=C(O)c1ccc(Oc2cccc(Cl)c2)cc1
132 to 134 °C

Could you do the same for CS(=O)(=O)c1ccc(OCC(=O)O)cc1 , please?
172 to 174 °C

Could you do the same for O=C(O)C1CCN(c2cccc(Br)c2)C1=O (stereo not given) , please?
144 to 146 °C

Could you do the same for COC(=O)c1oc(CCl)cc1C , please?
53 to 55 °C

Could you do the same for COc1cc(F)ccc1[N+](=O)[O-] , please?
49 to 51 °C

---

metricName: melting point

State the recorded melting point for this entry: CCc1cc(=O)n2c([nH]c3ccccc32)c1C#N
244 to 246 °C

Could you do the same for CN(CC(=O)Nc1c(Cl)cccc1Cl)C(=O)CCl , please?
188 to 190 °C

Could you do the same for Nc1nc(CO)n[nH]1 , please?
193 to 195 °C

Could you do the same for CCCS(=O)(=O)c1ccc(C(=O)O)cc1 , please?
193 to 195 °C

Could you do the same for CC(C)(C)Nc1cc(C(=O)O)c(N)cc1F , please?
199 to 201 °C

Could you do the same for O=C(O)CCN1C(=O)CCc2cc(F)ccc21 , please?
149 to 151 °C

Could you do the same for Nc1nc(-c2ccc3c(c2)COC3)cs1 , please?
204 to 206 °C

Could you do the same for O=C(O)c1ccc(NS(=O)(=O)c2ccc(Cl)c(Cl)c2)cc1 , please?
254 to 256 °C

Could you do the same for O=C(O)c1cc2ccc(SC(F)(F)F)cc2[nH]1 , please?
185 to 187 °C

Could you do the same for Nc1cc(NC(=O)c2ccccc2I)ccc1Cl , please?
189 to 191 °C

Could you do the same for COC(=O)c1cc([N+](=O)[O-])cc([N+](=O)[O-])c1F , please?
67 to 69 °C

Could you do the same for Oc1cc(Br)ccc1C(F)(F)F , please?
89 to 91 °C

Could you do the same for NC(CO)c1ccc(Br)cc1 (centres undefined) , please?
89 to 91 °C

Could you do the same for O=C(c1ccc(F)cc1)c1cccnc1 , please?
92 to 94 °C
